TESTED_ON: Dihydrofolate reductase (Homo sapiens)
Sequence (P00374 whole entry): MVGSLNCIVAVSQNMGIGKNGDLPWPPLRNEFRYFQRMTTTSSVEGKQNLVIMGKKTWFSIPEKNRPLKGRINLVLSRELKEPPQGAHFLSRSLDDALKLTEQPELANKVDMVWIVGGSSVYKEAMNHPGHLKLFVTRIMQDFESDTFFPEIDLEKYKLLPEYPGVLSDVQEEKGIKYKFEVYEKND
pIC50: −log10 of the molar value.
ASSAY_READOUT: pIC50

Return pIC50 measured with Dihydrofolate reductase (Homo sapiens) given this compound: Cc1c(Sc2ccc(C(=O)N[C@@H](CCC(=O)O)C(=O)O)cc2)[nH]c2nc(N)[nH]c(=O)c12 < 3.62

* * *

TESTED_ON: Bifunctional dihydrofolate reductase-thymidylate synthase (Toxoplasma gondii, UniProt Q07422)
ASSAY_NOTES: Inhibition of Toxoplasma gondii DHFR
ASSAY_READOUT: pIC50
// pIC50: -log10(molar conc.)

Entry under review: Cc1c(Sc2ccc(C(=O)N[C@@H](CCC(=O)O)C(=O)O)cc2)[nH]c2nc(N)[nH]c(=O)c12 . Reported pIC50? 5.66

* * *

TESTED_ON: Thymidylate synthase (Homo sapiens)
Sequence (P04818 whole entry): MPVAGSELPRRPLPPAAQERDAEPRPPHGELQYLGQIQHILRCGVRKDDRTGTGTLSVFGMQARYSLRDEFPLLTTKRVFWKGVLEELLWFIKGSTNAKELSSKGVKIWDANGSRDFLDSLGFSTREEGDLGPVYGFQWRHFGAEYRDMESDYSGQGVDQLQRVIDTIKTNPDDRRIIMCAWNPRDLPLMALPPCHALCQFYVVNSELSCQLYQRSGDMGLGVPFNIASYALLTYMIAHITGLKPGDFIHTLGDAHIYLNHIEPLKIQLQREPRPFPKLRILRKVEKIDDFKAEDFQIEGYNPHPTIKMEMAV
ASSAY_READOUT: IC50

Which value of IC50 has been reported for Cc1c(Sc2ccc(C(=O)N[C@@H](CCC(=O)O)C(=O)O)cc2)[nH]c2nc(N)[nH]c(=O)c12 in the records? 100 µM

* * *

TESTED_ON: UniProt:P0ABQ4
Sequence (P0ABQ4 whole entry): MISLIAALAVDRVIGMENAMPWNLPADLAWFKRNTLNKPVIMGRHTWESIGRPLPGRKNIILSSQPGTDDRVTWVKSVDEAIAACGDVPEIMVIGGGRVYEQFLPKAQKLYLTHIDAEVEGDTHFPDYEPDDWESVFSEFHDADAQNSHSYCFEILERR
ASSAY_READOUT: pIC50
Scale: pIC50 equals -log10([C]), with [C] in mol/L.

Please report the recorded pIC50 for Cc1nc2ccc(CN(C)c3ccc(C(=O)N[C@@H](CCC(=O)O)C(=O)O)s3)cc2c(=O)[nH]1 . 4.64

* * *

TESTED_ON: Bifunctional dihydrofolate reductase-thymidylate synthase (Toxoplasma gondii, UniProt Q07422)
Sequence (Q07422 whole entry): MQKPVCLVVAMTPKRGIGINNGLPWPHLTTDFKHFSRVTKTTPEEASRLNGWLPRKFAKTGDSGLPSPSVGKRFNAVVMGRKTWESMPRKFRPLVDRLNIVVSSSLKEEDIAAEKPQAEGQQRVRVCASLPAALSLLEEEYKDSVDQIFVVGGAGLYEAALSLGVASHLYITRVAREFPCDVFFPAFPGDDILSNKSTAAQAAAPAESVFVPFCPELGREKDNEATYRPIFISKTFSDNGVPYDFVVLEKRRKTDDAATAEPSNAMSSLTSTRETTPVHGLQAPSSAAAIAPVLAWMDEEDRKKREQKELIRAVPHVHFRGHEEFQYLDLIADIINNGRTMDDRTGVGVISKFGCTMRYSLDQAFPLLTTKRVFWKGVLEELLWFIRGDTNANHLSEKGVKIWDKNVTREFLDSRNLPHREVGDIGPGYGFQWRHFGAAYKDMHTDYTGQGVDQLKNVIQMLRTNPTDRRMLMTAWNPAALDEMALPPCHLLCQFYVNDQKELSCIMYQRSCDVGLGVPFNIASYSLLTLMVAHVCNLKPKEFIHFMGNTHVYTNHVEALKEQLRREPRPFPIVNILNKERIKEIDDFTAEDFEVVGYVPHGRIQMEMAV
ASSAY_NOTES: Inhibition of Toxoplasma gondii thymidylate synthase
ASSAY_READOUT: IC50 (µM)
Answer in µM, number only, no unit symbol.

Any idea what IC50 was measured for Cc1c(Sc2ccc(C(=O)N[C@@H](CCC(=O)O)C(=O)O)cc2)[nH]c2nc(N)[nH]c(=O)c12 ? 3.6
